System: UO-31 renal
Experiment: NCI-60 one-dose screen, 48 h
Settings: 10 µM unless noted
Procedure: Growth inhibition of the UO-31 human tumor cell line is measured as a screen for anti-cancer activity. Cells are grown in 96 well plates and exposed to the test compound for 48 hours. Compounds are tested at a single concentration, which is 10^-5 M for most compounds. The reported endpoint is percent growth (GI% or GIPRCNT), where numbers from 0 - 100% represent growth inhibition, and numbers from -100% - 0 represent cell death. For example, a value of 40 represents 60% growth inhibition. […]
About 83,000 compounds went through this panel and 20% of them were active in at least one assay; those are over-represented in the sample as a whole. Activity calls are given as the source filed them. How the source made its calls: active means growth percent below 10; inactive means the rest.
Labels: active, inactive

compound	className
Cc1cc(-c2ccccc2)on1	inactive
COc1cc(C2CC(c3ccc(C)cc3)=NN2C=O)ccc1Oc1ccnc2cc(Cl)ccc12 (stereo unspecified)	inactive
Nc1cc(C(=O)O)cc(C(=O)O)c1	inactive
CSC1=N/C(=C\c2cccc(OCc3ccc(Cl)cc3)c2)C(=O)N1	inactive
CC(C)=CC[C@@H]1CC2(CC=C(C)C)C(=O)C(OC3(C(=O)c4ccccc4)C(=O)C4(CC=C(C)C)C[C@@H](CC=C(C)C)C(C)(C)C(CC=C(C)C)(C4=O)C3=O)(C(=O)c3ccccc3)C(=O)C(CC=C(C)C)(C2=O)C1(C)C (stereo partly specified)	active
O=C(CCl)Nc1cc(O)c2c(c1)C(=O)c1cccc(O)c1C2=O	active
CC(C)(C)[Si](C)(C)OC1[C@@H](O[Si](C)(C)C(C)(C)C)[C@@H](CNC(=O)NC(=O)NC(=O)CI)O[C@H]1n1cnc2c(NC(=O)Nc3ccccc3)ncnc21 (stereo partly specified)	active
CCn1c(=O)c(C(=O)NCCCO)c(O)c2ccccc21	inactive
COC(=O)[C@H](Cc1cn(C)cn1)NC(=O)[C@H](CC(C)C)NC(=O)Nc1cc(C(F)(F)F)cc(C(F)(F)F)c1	active
O=C(Nc1ccc(-n2ccc3c(NC(=O)c4ccccc4)nccc32)cc1)c1ccc(N2CCOCC2)c(C(F)(F)F)c1	active
Cn1c(=O)c2c(nc(N/N=C/c3ccccc3Cl)n2C)n(C)c1=O	inactive
FC(F)(F)c1nn[nH]n1	inactive
O=C(O)C(CCc1ccccc1)NCc1ccccc1 (stereo unspecified)	inactive
COc1ccc(Cl)cc1Nc1nc(C(F)(F)F)ccc1C(=O)NN	inactive
c1ccc(-c2nnn(-c3ccccc3)n2)cc1	inactive
C[N+](C)(C)CCCCCCCCCC[N+](C)(C)C	inactive
COc1ccc(/C=C/c2nc(NCCCN(C)C)c3ccccc3n2)cc1	inactive
O=C1/C(=C/c2cc(F)cc(F)c2)Cc2cc(F)cc(F)c21	inactive
Cc1[nH]c2ccccc2c1C1=CC(=O)C=CC1=O	inactive
COc1cccc(N2CCN(c3ncnc4cc[nH]c34)CC2)c1	inactive
COc1ccc(/C=C(\C#N)c2cc(OC)c(OC)c(OC)c2)cc1	inactive
